# Test system: IGROV-1
# assay procedure: NCI tumour cell line growth inhibition, 48 h
Calls of active or inactive are those of the source. Cut-off read from the data, not from the text of the source: active = GI50 up to about 1.1 µM and inactive = higher. Where a SMILES comes first, the peptide text is derived from it. The star is where a group is joined. OSu = O=C1CCC(=O)N1O*; OBn = c1ccc(CO*)cc1; Bn = c1ccc(C*)cc1
Select the correct class. Options are class 1 for active, class 0 for inactive and nothing else.

Task item: Per the assay record, what outcome was assigned to "O=C(c1ccccc1)N1C(=S)N(c2ccc([N+](=O)[O-])cc2)C(=N/c2ccccc2)/C1=N\c1ccccc1" ?
Reply: class 0

Task item: In this assay, the call recorded for CN1C(=O)c2ccccc2NC(=O)C12O[C@@H]2c1cccc(O)c1 (stereo not given in full) was what?
Reply: class 0

Task item: Status in this test for "CC12C(=O)CC(CC1=O)C2(C)C" ?
Reply: class 0

Task item: Field: outcome | Entry: "O=C1NNC2(C(=O)N1)c1ccccc1-c1ccccc12"
Reply: class 0

Task item: # outcome recorded in this test, key = NC(=O)C(=O)C(c1ccccc1)S(=O)(=O)Cc1ccccc1 (stereo not given)
Reply: class 0

Task item: Tell me the recorded outcome of this test for O=C1Nc2ccccc2NC1C1OC(c2ccccc2)=CC1=O (stereo not given) .
Reply: class 0

Further cases:
Task item: // return assay outcome for "CCOC(=O)c1cc2c(nc1N)-c1ncccc1CC2"
Reply: class 0

Task item: Give the logged outcome of this assay for the following molecule: COc1cc2cc(C(=O)N3CC(CCl)c4c3cc(N)c3ccccc43)[nH]c2c(OC)c1OC (stereo not given)
Reply: class 1

Task item: What call does the record list for [N-]=[N+]=NC1(c2ccccc2)C(=O)Nc2ccccc2C1=O (stereo not given) ?
Reply: class 0

Task item: Each molecule tested received a call. Report the one for CC(C)CC(NC(=O)C(N)CCC(=O)OCc1ccccc1)C(=O)NC(COCc1ccccc1)C(=O)NC(Cc1ccccc1)C(=O)ON1C(=O)CCC1=O (stereo not given) (H-E(OBn)LS(Bn)F-OSu; configuration not given here) .
Reply: class 0

* * *

# System: NCI-H226
# assay procedure: NCI tumour cell line growth inhibition, 48 h
Active and inactive are the calls of the source. No stated cut-off is given here; in the data, active = GI50 up to about 1.1 µM and inactive = higher.
The following molecules are listed with their measured GI50 values.

# example entries with known answers
Task item: Which measured GI50 value corresponds to "CC1(C)Cc2cc(C(=O)O)c3c(c2C1=O)COCC3" ?
Reply: > 100 µM (inactive)

Task item: Quick check: GI50 of "CCN1C=C/C(=C\C=C\c2cc[n+](CC)c3ccccc23)c2ccccc21" ?
Reply: 3.36 µM (inactive)

Kindly consider the entry below.
Task item: If you can, please state the reported GI50 value of "COc1ccc(O)c(/C(C)=N/NC(=S)N(C)C)c1" .
Reply: 16.1 µM (inactive)

* * *

# Test system: SNB-75
# assay procedure: NCI tumour cell line growth inhibition, 48 h
Calls of active or inactive are those of the source. No stated cut-off is given here; in the data, active = GI50 up to about 1.1 µM and inactive = higher.
Please state which outcome applies, choosing from T = active, F = inactive

Task item: What did the test return for COc1cc2cc(C(=O)N3CC(CCl)c4c3cc(N)c3ccccc43)[nH]c2c(OC)c1OC (stereo not drawn) ?
Reply: T

More entries:
Task item: How did this test come out for "COc1cc2ccc1OCc1cccc(n1)COc1ccc(cc1OC)/C=N\c1ccc(cc1)-c1ccc(cc1)/N=C\2" ?
Reply: F

Task item: Status in this test for CC(=O)OC1C=C(C=O)C(O)(C=O)C2(C)CCCC(C)(C)C12 (stereo not drawn) ?
Reply: F

Task item: Just curious, what result did "COc1cc2c(cc1O)[C@]1(Cc3ccc4c(c3C1=O)OCO4)N(C)CC2" get here?
Reply: F

Task item: Recorded call for "CC12CC3CC(C)(C1)CC(N=[N+]=[N-])(C3)C2" ?
Reply: F

Task item: Could you please tell me the result logged for "O=C(O)CCC(=O)Nc1ccc2ccccc2c1" in this assay?
Reply: F

Task item: Which outcome was entered for the molecule CSCSCC(CO)NC(=O)/C=C\c1c(C)[nH]c(=O)[nH]c1=O (stereo not drawn) in this test?
Reply: F

Task item: # fetch the recorded call for "O=C1C(Br)=CC2(C=C1Br)CCNC1=C2C2=NCCc3c[nH]c(c32)C1=O" here
Reply: T
